- assay method text: Clearance in Sprague-Dawley rat at 1 mg/ml, iv
- Type: ADME, organism-based
- setup conditions: in vivo
readout label: clearance (mL/min/kg)
Answers are plain numbers, in mL/min/kg.

Ask: # get_value(readout='clearance', item= Cc1cc(-c2cnn3c(NCC4CCOCC4)nc(Oc4ccccc4)nc23)ccc1C(=O)NC1CC1 )
Reply: 19

###

- assay method text: AUC (0 to infinity) in Sprague-Dawley rat at 5 mg/ml, iv
- Format: ADME, organism-based
- Set-up: dose 5 mg/ml, route intravenous, time infinity
- setup conditions: in vivo
readout label: AUC(0-inf) (ng·h/mL)
Numbers only, in ng·h/mL.

Ask: Which value of AUC(0-inf) has been reported for Cc1cc(-c2cnn3c(NCC4CCOCC4)nc(Oc4ccccc4)nc23)ccc1C(=O)NC1CC1 in the records?
Reply: 4230

###

- assay method text: Half life in mouse microsomes
- Type: ADME, Microsome
readout label: half-life (min)
Give bare numbers, in min.

smiles repr: Cc1cc(-c2cnn3c(NCC4CCOCC4)nc(Oc4cccc(F)c4F)nc23)ccc1C(=O)NC1CC1
half-life (min): 28

smiles repr: Cc1cc(-c2cnn3c(NCC4CCOCC4)nc(Oc4ccccc4)nc23)ccc1C(=O)NC1CC1
half-life (min): 46

As a next step, examine the compound that follows.
Ask: half-life lookup needed for Cc1cc(-c2cnn3c(NCC4CCOCC4)nc(NC4CCCC4)nc23)ccc1C(=O)NC1CC1 , thanks.
Reply: 14

###

- assay method text: Half life in Sprague-Dawley rat at 1 mg/ml, iv
- Type: ADME, organism-based
- setup conditions: in vivo
readout label: half-life (h)
Give bare numbers, in h.

Ask: What value of half-life has been reported for the following compound? Cc1cc(-c2cnn3c(NCC4CCOCC4)nc(Oc4ccccc4)nc23)ccc1C(=O)NC1CC1
Reply: 1.53

###

- measurement target: Aurora kinase A (Homo sapiens)
- Sequence (O14965 whole entry): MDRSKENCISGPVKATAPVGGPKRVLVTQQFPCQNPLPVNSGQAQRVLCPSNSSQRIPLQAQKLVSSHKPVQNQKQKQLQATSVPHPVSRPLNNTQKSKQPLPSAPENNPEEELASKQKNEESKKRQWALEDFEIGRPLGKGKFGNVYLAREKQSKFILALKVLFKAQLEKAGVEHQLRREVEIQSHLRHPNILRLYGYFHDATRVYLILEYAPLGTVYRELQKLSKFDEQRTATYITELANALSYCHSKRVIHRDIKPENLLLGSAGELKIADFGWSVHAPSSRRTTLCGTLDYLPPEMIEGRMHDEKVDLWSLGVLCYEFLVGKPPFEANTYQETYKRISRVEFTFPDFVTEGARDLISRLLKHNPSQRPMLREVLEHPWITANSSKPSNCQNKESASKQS
- assay method text: Inhibition of full length recombinant human N-terminal His6-tagged Aurora A expressed in Sf21 cells by radiometric assay
readout label: IC50

Ask: So what's the measured IC50 for this one? Cc1cc(-c2cnn3c(NCC4CCOCC4)nc(Oc4ccccc4)nc23)ccc1C(=O)NC1CC1
Reply: > 50 µM

###

- assay method text: Protein binding in mouse plasma
- Assay type: ADME, cell-free
- setup conditions: read-out: PPB (converted)
readout label: fraction unbound
Give bare numbers.

Ask: # lookup: fraction unbound of Cc1cc(-c2cnn3c(NCC4CCOCC4)nc(Oc4ccccc4)nc23)ccc1C(=O)NC1CC1
Reply: 0.016

###

- assay method text: Half life in Sprague-Dawley rat at 5 mg/ml, iv
- Format: ADME, organism-based
- setup conditions: in vivo
readout label: half-life (h)
One number for each entry, in h.

Ask: Could you share which half-life value was measured for Cc1cc(-c2cnn3c(NCC4CCOCC4)nc(Oc4ccccc4)nc23)ccc1C(=O)NC1CC1 ?
Reply: 1.7

###

- assay method text: AUC in mouse at 10 mg/kg, po
- Type: ADME, organism-based
- setup conditions: in vivo
readout label: AUC

Ask: Which value of AUC has been reported for Cc1cc(-c2cnn3c(NCC4CCOCC4)nc(Oc4cccc(F)c4F)nc23)ccc1C(=O)NC1CC1 in the records?
Reply: 4000 ng·h/mL

###

- assay method text: Cmax in Sprague-Dawley rat at 5 mg/ml, iv
- Assay type: ADME, organism-based
- Set-up: dose 5 mg/ml, route intravenous
- setup conditions: in vivo
readout label: Cmax (ng/mL)
One number for each entry, in ng/mL.

Ask: Recorded Cmax of Cc1cc(-c2cnn3c(NCC4CCOCC4)nc(Oc4ccccc4)nc23)ccc1C(=O)NC1CC1 , please.
Reply: 841
